Origin of measurements: patent EP1734039A1

test system: Aβ1-40 secretion; test: Aβ1-40 (Sw) bioassay (cell-based, ELISA); details: Homo sapiens; concentration that reduces Aβ1-40 secretion to 50 %; supernatant of Swedish APP695 transgenic HEK293 cells
Measurement Type: IC50
A complete answer gives the number followed by the unit.

Reference set (3 entries):
COc1cc(NC(=O)Nc2ccc(N(C)C)c(C(=O)NCc3ccc(F)cc3)c2)cc(OC)c1 [Compound A10] : 3.1 µM
CSc1nnc(CCNC(=O)Nc2ccc(Cl)c(C(F)(F)F)c2)n1C(C)C [Compound B2] : 40 µM
CCOCCCNC(=O)c1cc(NC(=O)Nc2ccccc2Br)ccc1N(C)C [Compound A14] : 7.8 µM

Moving on to the next molecule.
What value of IC50 has been reported for the following molecule? COCCCNC(=O)c1cc(NC(=O)Nc2cccc(OC)c2)ccc1N(C)C [Compound A4]
7.5 µM
